assay_explanation: water solubility of the substrate (aqueous solution prepared)
reported_endpoint: solubility (mM)

1) CC(=O)N[C@H]1[C@H](Oc2ccc([N+](=O)[O-])c([N+](=O)[O-])c2)O[C@H](CO)[C@@H](O)[C@@H]1O = 12

###

assay_explanation: stability (decomposition) of the substrate in aqueous solution
Format: physicochemical
condition_set: enzyme reaction conditions (pH 5, 37°C) for one hour; read-out: decomposition ratio
reported_endpoint: degraded at 1 h

1) CC(=O)N[C@H]1[C@H](Oc2ccc([N+](=O)[O-])c([N+](=O)[O-])c2)O[C@H](CO)[C@@H](O)[C@@H]1O = 1.5%

###

assay_explanation: stability (decomposition) of the substrate in aqueous solution
Assay type: physicochemical
condition_set: water; aqueous solution left to stand at room temperature overnight
reported_endpoint: degraded

1. CC(=O)N[C@H]1[C@H](Oc2ccc([N+](=O)[O-])c([N+](=O)[O-])c2)O[C@H](CO)[C@@H](O)[C@@H]1O [3,4-DNG] = ~1%
